Each recorded value in this set is attributed to patent US9174952B2.

Entries annotated with measured IC50
Target: Recombinant human cathepsin A (Homo sapiens)
Construct: Recombinant human cathepsin A (residues 29-480, with a C-terminal 10-His tag); 10-His (C)
Sequence (P10619 29-326 limits assumed): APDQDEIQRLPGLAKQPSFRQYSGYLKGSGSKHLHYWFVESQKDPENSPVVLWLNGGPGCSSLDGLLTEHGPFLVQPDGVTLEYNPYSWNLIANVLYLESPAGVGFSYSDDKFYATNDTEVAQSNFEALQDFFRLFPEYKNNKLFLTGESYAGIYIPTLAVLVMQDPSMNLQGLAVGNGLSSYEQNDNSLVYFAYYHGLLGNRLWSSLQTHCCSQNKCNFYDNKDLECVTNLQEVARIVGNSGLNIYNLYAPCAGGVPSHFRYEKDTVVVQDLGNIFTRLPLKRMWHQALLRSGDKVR
Sequence (P10619 327-480 limits assumed): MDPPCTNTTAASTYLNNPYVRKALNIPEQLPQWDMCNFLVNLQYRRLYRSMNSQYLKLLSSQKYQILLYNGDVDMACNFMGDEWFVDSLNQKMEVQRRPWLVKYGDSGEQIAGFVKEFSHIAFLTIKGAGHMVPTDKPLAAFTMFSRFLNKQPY
Assay: Cathepsin A inhibitory activity
Conditions: activated recombinant human cathepsin A 833 ng/ml, Bodipy FL-labeled bradykinin substrate 2 μM, pH 5.5, room temperature
test-readout: IC50 (µM)

>>> reported("O=C(O)C[C@H](NC(=O)c1csc(-c2ccccc2)n1)c1cccc(F)c1")
0.955
>>> reported("O=C(O)C[C@H](NC(=O)c1csc(-c2ccc(C(F)(F)F)cc2)n1)c1cccc(Cl)c1")
10.5
>>> reported("O=C(O)C[C@H](NC(=O)c1csc(-c2ccc(Cl)cc2)n1)c1cccc(F)c1")
2.96
>>> reported("O=C(O)C[C@H](NC(=O)c1csc(-c2cccc(Cl)c2Cl)n1)c1ccc(Cl)cc1Cl")
0.555
